molecular target: E. coli CsgA (Escherichia coli, UniProt P28307); construct: made in house; host or cells: E. coli NEB 3016 slyD::kan, pET11d; assay: In vitro ThioflavinT assay of CsgA aggregation (CsgA ThT Assay); assay type: biochemical; details: read-out: CsgA ThT Assay (10 μM CsgA) % Control AUC at 1005 minutes, 100 μM, mean AUC as % of DMSO control; CsgA 10 μM, black plates; compound 100 μM; 1005 minutes
Sequence (P28307 23-151): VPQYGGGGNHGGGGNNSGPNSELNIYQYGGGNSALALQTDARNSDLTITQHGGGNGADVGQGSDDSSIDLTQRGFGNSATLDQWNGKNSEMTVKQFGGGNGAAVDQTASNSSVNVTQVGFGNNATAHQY
Documented remaining activity at 100 µM across a set of compounds

{"compound": "Nc1c(Cc2cccc3ccccc23)c(-c2cccc(C(F)(F)F)c2)c2n(c1=O)C(C(=O)O)CO2 (stereo not drawn) [Compound 069]", "target": "E. coli CsgA (Escherichia coli, UniProt P28307)", "remaining activity at 100 µM": "14%"}
{"compound": "O=C(O)[C@H]1CS(=O)(=O)c2c(-c3cccc(C(F)(F)F)c3)c(Cc3cccc4ccccc34)cc(=O)n21 (single isomer, unassigned) [Compound 010b]", "target": "E. coli CsgA (Escherichia coli, UniProt P28307)", "remaining activity at 100 µM": "45%"}
{"compound": "Cn1c(=O)c2c(nc(CCCCCCN3CC(C(=O)O)n4c(c(-c5cccc(C(F)(F)F)c5)c(Cc5cccc6ccccc56)cc4=O)S3(=O)=O)n2C)n(C)c1=O (stereo not drawn) [Compound 046]", "target": "E. coli CsgA (Escherichia coli, UniProt P28307)", "remaining activity at 100 µM": "55%"}

// provenance: patent US20230131899A1
